# MEASURED ON: kappa opioid receptor (OPRK1) (Homo sapiens (Human), UniProt P41145)
# Sequence (P41145 whole entry): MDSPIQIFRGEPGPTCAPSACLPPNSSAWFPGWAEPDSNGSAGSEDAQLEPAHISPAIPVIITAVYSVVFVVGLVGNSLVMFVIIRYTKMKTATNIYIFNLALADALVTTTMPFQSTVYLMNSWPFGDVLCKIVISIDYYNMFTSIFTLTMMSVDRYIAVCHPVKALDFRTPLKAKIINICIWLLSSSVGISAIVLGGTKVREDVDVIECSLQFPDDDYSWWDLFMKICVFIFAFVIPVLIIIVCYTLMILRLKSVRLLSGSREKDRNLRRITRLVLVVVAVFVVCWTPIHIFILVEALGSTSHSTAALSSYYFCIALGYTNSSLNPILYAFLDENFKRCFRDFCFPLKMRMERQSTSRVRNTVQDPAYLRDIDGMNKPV
# ASSAY EXPLANATION: OPRK1 antagonist assay (b-arrestin-2-TEV / b-lactamase reporter cell line, EC80 U-50488 challenge)
# Format: cell-based
# CONDITION SUMMARY: read-out: IC50 nM (% inhib if other than 50%); antagonist mode vs EC80 U-50488; NA = not active at concentrations up to 10 μM
QUANTITY NAME: IC50 (nM)

# count of solved cases: 6
>>> endpoint_value("CCc1ccc2nc(N3CCC(N[C@H](C)CC)CC3)c(-c3nc(C)no3)cc2c1")
17
>>> endpoint_value("CN(C)C(=O)c1cc(Br)cnc1N1CC[C@@H](NC2CCCCC2)[C@H](O)C1")
3200
>>> endpoint_value("COC1CN(c2ncc(C)cc2-c2nc(C)no2)CCC1NC1CCOCC1 (centres unmarked)")
170
>>> endpoint_value("COC1CN(c2nc(CO)ccc2-c2nc(C)no2)CCC1NC1CCCCC1 (centres unmarked)")
60
>>> endpoint_value("CCOC(=O)c1cc2cc(C)ccc2nc1N1CCC(NC2CCCCC2)C(OC)C1 (centres unmarked)")
30
>>> endpoint_value("Cc1ccc2nc(N3CCC(NC4CCCCC4)C(CO)C3)c(C(=O)N(C)C)cc2c1 (centres unmarked)")
99

(A) COC(=O)c1cc(NC(C)=O)cnc1N1CCC(NC2CCCCC2)CC1
(B) COC(=O)c1cc(C)cnc1N1CC[C@@H](NC2CCCCC2)[C@H](O)C1
(C) COC1CN(c2ncc(Br)cc2-c2nc(C)no2)CCC1NC1CCCCC1 (centres unmarked)
(D) COC(=O)c1cccnc1N1CCC(NC2CCCCC2)C(CO)C1 (centres unmarked)
Rank entries according to their IC50, from the largest number down. Would you mind listing the labels in the order requested?
D, A, C, B
(D: 5400 nM, A: 628 nM, C: 100 nM, B: 35 nM)

(P) COC1CN(c2nc(C)c(C)nc2-c2nc(C)no2)CCC1NC1CCCCC1 (centres unmarked)
(Q) COC1CN(c2nc3ccccc3cc2-c2nc(C)no2)CCC1NC1CCCCC1 (centres unmarked) [compound 176]
(R) Cc1noc(-c2cc3ccccc3nc2N2CCC(NC3CCCCC3)C2)n1 (centres unmarked)
Form: Sort by [IC50] Order [ ascending ] Would you mind listing the labels in the order requested?
Q, R, P

(a) Cc1ccc2nc(N3CCC(NCC4CC4)CC3)c(-c3noc(C)n3)cc2c1
(b) CCc1cnc(N2CC[C@@H](NC3CCCCC3)[C@H](O)C2)c(-c2nc(C)no2)c1
# query: argmin of IC50 over a and b Pick one and reply with its label.
a
(a: 43 nM, b: 1000 nM)

###

# MEASURED ON: kappa opioid receptor (OPRK1) (Homo sapiens (Human), UniProt P41145)
# ASSAY EXPLANATION: OPRK1 antagonist assay (b-arrestin-2-TEV / b-lactamase reporter cell line, EC80 U-50488 challenge)
# Type: cell-based
# CONDITION SUMMARY: read-out: IC50 nM (% inhib if other than 50%); antagonist mode vs EC80 U-50488; NA = not active at concentrations up to 10 μM
QUANTITY NAME: IC50 (nM)

# count of solved cases: 6
>>> endpoint_value("COC(=O)c1cccnc1N1CCC(NC2CCCCC2OC)C(O)C1 (stereo not drawn)")
559
>>> endpoint_value("Cc1noc(-c2cc3cc(Cl)ccc3nc2N2CCC(NC3CCCCC3)C(CO)C2)n1 (stereo not drawn)")
16
>>> endpoint_value("CO[C@H]1CN(c2nc3cc(F)ccc3cc2-c2nc(C)no2)CC[C@H]1NCC(C)C")
970
>>> endpoint_value("Cc1nc(-c2cc3ccc(F)cc3nc2N2CCC(NC3CCOCC3)CC2)no1")
75
>>> endpoint_value("OCC1CN(c2ncc(Br)cc2-c2nc(C3CC3)no2)CCC1NC1CCCCC1 (stereo not drawn)")
2100
>>> endpoint_value("Cc1ccc2nc(N3CCC(NC4CCOC4)CC3)c(-c3nc(C)no3)cc2c1 (stereo not drawn)")
8

(I) COC(=O)c1cc(Br)cnc1N1CCC(NC2CCCCC2)CC1
(II) Cc1ccc2nc(N3CCC(NC4CC(C)OC(C)C4)CC3)c(-c3nc(C)no3)cc2c1 (stereo not drawn)
Select the item with the higher value of IC50 from the options I and II listed. Pick one and reply with its label.
I
(I: 133 nM, II: 50 nM)

Values compiled from patent US20250346584A1.
